- ASSAY EXPLANATION: CD69 Whole Blood Assay (CD69 Hu Blood FACS)
- Assay type: cell-based, human
- COND: Lymphocyte; human whole blood, anti-IgM activated B lymphocytes, FACS; IC70; Table 2 (unit inferred); read-out: CD69 Hu Blood FACS (IC70)
Decide using IC70 alone. Strictly below 0.08 µM: Yes. Equal to or above 0.08 µM: No.

Please review the following examples before continuing.
(Q) For C[C@H]1CN(C2COC2)CCN1c1ccc(Nc2cc(-c3ccnc(N4CCn5c(cc6c5CC(C)(C)C6)C4=O)c3CO)nn(C)c2=O)nc1 [Example 224] , is the recorded IC70 below the cut-off of 0.08 µM?
(A) Yes

(Q) For C[C@H]1CN(C2COC2)CCN1c1ccc(Nc2cc(-c3ccnc(-n4ncc5c6c(sc5c4=O)CC(C)(C)C6)c3CO)cn(C)c2=O)nc1 [Example 282] , is the recorded IC70 below the cut-off of 0.08 µM?
(A) Yes

(Q) For C[C@H]1COC[C@H](C)N1C(=O)c1ccc(Nc2cc(-c3ccnc(N4CCn5c(cc6c5CC(C)(C)C6)C4=O)c3CO)nn(C)c2=O)nc1 [Example 324] , is the recorded IC70 below the cut-off of 0.08 µM?
(A) No

(Q) For Cn1cc(-c2ccnc(N3CCn4c(cc5c4CC(C)(C)C5)C3=O)c2CO)cc(Nc2cnc(C#N)cn2)c1=O [Example 298] , is the recorded IC70 below the cut-off of 0.08 µM?
(A) No

(Q) For Cc1nccc(Nc2cc(-c3ccnc(N4CCn5c(cc6c5CC(C)(C)C6)C4=O)c3CO)c[nH]c2=O)n1 [Example 222] , is the recorded IC70 below the cut-off of 0.08 µM?
(A) No

(Q) For Cn1cc(-c2ccnc(N3CCn4c(cc5c4CC(C)(C)C5)C3=O)c2CO)cc(Nc2cccc(N)n2)c1=O [Example 221] , is the recorded IC70 below the cut-off of 0.08 µM?
(A) No

More entries:
(Q) For Cc1cc(Nc2cc(-c3ccnc(N4CCn5c(cc6c5CC(C)(C)C6)C4=O)c3CO)cn(C)c2=O)nn1C [Example 218] , is the recorded IC70 below the cut-off of 0.08 µM?
(A) Yes

(Q) For Cn1nc(-c2ccnc(N3CCn4c(cc5c4CCCC5)C3=O)c2CO)cc(Nc2ccc(C(=O)N3CCOCC3)cn2)c1=O [Example 227] , is the recorded IC70 below the cut-off of 0.08 µM?
(A) No

(Q) For Cn1nc(-c2ccnc(N3CCn4c(cc5c4CC(C)(C)C5)C3=O)c2CO)cc(Nc2ccc(C(=O)N3CCOCC3)cn2)c1=O [Example 226] , is the recorded IC70 below the cut-off of 0.08 µM?
(A) No

(Q) For Cn1cc(-c2ccnc(-n3ncc4c5c(sc4c3=O)CC(C)(C)C5)c2CO)cc(Nc2cc3n(n2)CC(C)(C)OC3)c1=O [Example 335] , is the recorded IC70 below the cut-off of 0.08 µM?
(A) Yes

(Q) For C[C@H]1CN(C2COC2)CCN1c1ccc(Nc2cc(-c3ccnc(N4CCn5c(cc6c5CC(C)(C)C6)C4=O)c3CO)c[nH]c2=O)nc1 [Example 271] , is the recorded IC70 below the cut-off of 0.08 µM?
(A) Yes

(Q) For Cn1cc(-c2ccnc(N3CCn4c(cc5c4CC(C)(C)C5)C3=O)c2CO)cc(Nc2cc[nH]n2)c1=O [Example 289] , is the recorded IC70 below the cut-off of 0.08 µM?
(A) No

====

- ASSAY EXPLANATION: CD69 Whole Blood Assay (CD69 Hu Blood FACS)
- Assay type: cell-based, human
- COND: Lymphocyte; human whole blood, anti-IgM activated B lymphocytes, FACS; IC70; Table 2 (unit inferred); read-out: CD69 Hu Blood FACS (IC70)
Parameter threshold = 1000 nM. Response is rule met when IC70 meets or exceeds it, else rule not met.

Please review the following examples before continuing.
(Q) Entry Cn1cc(-c2ccnc(N3CCn4c(cc5c4CC(C)(C)C5)C3=O)c2CO)cc(Nc2ccc(C(F)(F)F)nn2)c1=O [Example 301] : is its IC70 no less than 1000 nM?
(A) rule met

(Q) Entry CN1CCn2nc(Nc3cc(-c4ccnc(N5CCn6c(cc7c6CCCC7)C5=O)c4CO)cn(C)c3=O)nc2C1 [Example 270] : is its IC70 no less than 1000 nM?
(A) rule met

(Q) Entry Cc1cc(Nc2cc(-c3ccnc(-n4ncc5c6c(sc5c4=O)CC(C)(C)C6)c3CO)cn(C)c2=O)nn1C [Example 292] : is its IC70 no less than 1000 nM?
(A) rule not met

(Q) Entry C[C@@H]1COC[C@H](C)N1C(=O)c1ccc(Nc2cc(-c3ccnc(N4CCn5c(cc6c5CC(C)(C)C6)C4=O)c3CO)nn(C)c2=O)nc1 [Example 321] : is its IC70 no less than 1000 nM?
(A) rule not met

(Q) Entry COCCN1CCn2nc(Nc3cc(-c4ccnc(N5CCn6c(cc7c6CC(C)(C)C7)C5=O)c4CO)cn(C)c3=O)cc2C1 [Example 296] : is its IC70 no less than 1000 nM?
(A) rule not met

More entries:
(Q) Entry CC(=O)N1CCn2nc(Nc3cc(-c4ccnc(N5CCn6c7c(c(F)c6C5=O)CCCC7)c4CO)cn(C)c3=O)cc2C1 [Example 255] : is its IC70 no less than 1000 nM?
(A) rule not met

(Q) Entry COCCN1CCn2nc(Nc3cc(-c4ccnc(N5CCn6c(cc7c6CC(C)(C)C7)C5=O)c4CO)c(C)n(C)c3=O)cc2C1 [Example 327] : is its IC70 no less than 1000 nM?
(A) rule met

====

- ASSAY EXPLANATION: CD69 Whole Blood Assay (CD69 Hu Blood FACS)
- Format: cell-based, human
- COND: Lymphocyte; human whole blood, anti-IgM activated B lymphocytes, FACS; IC70; Table 2 (unit inferred); read-out: CD69 Hu Blood FACS (IC70)
PARAMETER MEASURED: log10 of IC70 (log10 of the value in nM)
Each number you see is log10 of IC70, and the unit inside the log is nM.

Take a look at these entries with their results.
(Q) Return reported log10 of IC70; argument: Cc1cc(Nc2cc(-c3ccnc(-n4ncc5c6c(sc5c4=O)CC(C)(C)C6)c3CO)cn(C)c2=O)no1
(A) 2.36

(Q) Return reported log10 of IC70; argument: Cn1nc(Nc2cc(-c3ccnc(N4CCn5c(cc6c5CC(C)(C)C6)C4=O)c3CO)cn(C)c2=O)cc1C(=O)N1CCCC1
(A) 1.18

(Q) Return reported log10 of IC70; argument: C[C@H]1CN(C2COC2)CCN1c1ccc(Nc2cc(-c3ccnc(N4CCn5c(cc6c5CC(C)(C)C6)C4=O)c3CO)n[nH]c2=O)nc1
(A) 1.21

(Q) Return reported log10 of IC70; argument: CCC(=O)N1CCn2nc(Nc3cc(-c4ccnc(N5CCn6c(cc7c6CC(C)(C)C7)C5=O)c4CO)cn(C)c3=O)cc2C1
(A) 0.96

(Q) Return reported log10 of IC70; argument: C[C@H]1CN(C2COC2)CCN1c1ccc(Nc2cc(-c3ccnc(N4CCc5c(c(F)c6n5CCCC6)C4=O)c3CO)cn(C)c2=O)nc1
(A) 1.66

More entries:
(Q) Return reported log10 of IC70; argument: Cc1c2cc(Nc3cc(-c4ccnc(N5CCn6c(cc7c6CC(C)(C)C7)C5=O)c4CO)cn(C)c3=O)ncc2nn1C
(A) 3.15

(Q) Return reported log10 of IC70; argument: Cn1cc(-c2ccnc(N3CCn4c(cc5c4CC(C)(C)C5)C3=O)c2CO)cc(Nc2cc(-c3ccccc3)on2)c1=O
(A) 3.32

====

- ASSAY EXPLANATION: CD69 Whole Blood Assay (CD69 Hu Blood FACS)
- Format: cell-based, human
- COND: Lymphocyte; human whole blood, anti-IgM activated B lymphocytes, FACS; IC70; Table 2 (unit inferred); read-out: CD69 Hu Blood FACS (IC70)
Below, each of the compounds is paired with its reported IC70 value.
Quick note: give the figure in nM, leave out the unit.

Take a look at these entries with their results.
(Q) Return reported IC70; argument: Cn1cc(-c2ccnc(N3CCn4c(cc5c4CCCC5)C3=O)c2CO)cc(Nc2ccc(C3=CCN(C4COC4)CC3)cn2)c1=O [Example 200]
(A) 636

(Q) Return reported IC70; argument: C[C@H]1CN(C2COC2)CCN1c1ccc(Nc2cc(-c3ccnc(N4CCn5c(cc6c5CCCC6)C4)c3CO)cn(C)c2=O)nc1 [Example 220]
(A) 1600

(Q) Return reported IC70; argument: CN1Cc2cc(Nc3cc(-c4ccnc(N5CCn6c(cc7c6CC(C)(C)C7)C5=O)c4CO)cn(C)c3=O)nn2CC1=O [Example 313]
(A) 19.1

(Q) Return reported IC70; argument: CC(=O)N1CCn2nc(Nc3cc(-c4ccnc(N5CCn6c(cc7c6CC(C)(C)C7)C5=O)c4CO)cn(C)c3=O)cc2C1 [Example 212]
(A) 15.2

Turning to the following compound.
(Q) Return reported IC70; argument: Cn1cc(-c2ccnc(N3CCn4c(cc5c4CC(C)(C)C5)C3=O)c2CO)cc(Nc2ccccn2)c1=O [Example 273]
(A) 299

Sourced from patent US10045983B2
